Experimental Target: human TREX2 (residues M44-A279) (Homo sapiens)
Construct: human TREX2 (residues M44-A279, expressed in E. coli); His-Tev (His tag with TEV protease site) (N)
Sequence (Q9BQ50 44-279 isoform Q9BQ50-1): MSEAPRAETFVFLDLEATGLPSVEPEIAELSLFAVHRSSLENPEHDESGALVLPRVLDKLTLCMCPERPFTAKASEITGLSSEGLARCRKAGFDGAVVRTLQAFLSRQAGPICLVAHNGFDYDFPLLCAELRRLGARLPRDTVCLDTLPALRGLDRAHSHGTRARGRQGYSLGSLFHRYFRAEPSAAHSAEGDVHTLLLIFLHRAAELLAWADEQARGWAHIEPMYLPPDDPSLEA
Experiment Notes: TREX2 Biochemical Assay (fluorescence assay, degradation of dsDNA substrate)
Condition Notes: 2.5 nM TREX2, 60 nM dsDNA substrate, 25 minutes at room temperature; read-out: hTREX2 EC50
Reported EC50 values follow for various compounds

Answered cases to consult:
O=C(O)Cn1cc(CN(Cc2ccc(Cl)cc2Cl)C(=O)c2cc(F)cc(F)c2)cn1; > 100 µM
C[C@H](c1ccc(C(N)=O)cc1Cl)N(Cc1cccnc1)C(=O)c1cccc(F)c1 (single isomer, unassigned); 10 to 100 µM
N#CC[C@@H](c1cccc(Cl)c1Cl)N(Cc1cccnc1)C(=O)c1cc(F)cc(F)c1; 10 to 100 µM
CC[C@@H](c1cccc(OC)c1Cl)N(Cc1ccc(C(=O)O)nc1)C(=O)c1cc(F)cc(F)c1; 1 to 10 µM
O=C(O)c1ccc(CN(Cc2ccccc2Cl)C(=O)c2cc(F)cc(F)c2)cn1; 1 to 10 µM

--- query ---
Query: Please report the recorded EC50 for `COC(=O)C[C@@H](c1ccc(Cl)cc1Cl)N(Cc1cccnc1)C(=O)c1cc(F)cc(F)c1` .
Reply: 10 to 100 µM

src = patent US20230233541A1
